biological target: rat NMUR2 (Rattus norvegicus); assay: FLIPR calcium mobilization assay, rat NMUR2; format: cell-based; design: expressed in transfected cells; host or cells: FLP-In CHO or HEK-293 FLP-In cells (pcDNA5); details: maximum response at 1 μM compared to hNMU-25; rat NMUR2
Sequence (Q9ESQ4 whole entry): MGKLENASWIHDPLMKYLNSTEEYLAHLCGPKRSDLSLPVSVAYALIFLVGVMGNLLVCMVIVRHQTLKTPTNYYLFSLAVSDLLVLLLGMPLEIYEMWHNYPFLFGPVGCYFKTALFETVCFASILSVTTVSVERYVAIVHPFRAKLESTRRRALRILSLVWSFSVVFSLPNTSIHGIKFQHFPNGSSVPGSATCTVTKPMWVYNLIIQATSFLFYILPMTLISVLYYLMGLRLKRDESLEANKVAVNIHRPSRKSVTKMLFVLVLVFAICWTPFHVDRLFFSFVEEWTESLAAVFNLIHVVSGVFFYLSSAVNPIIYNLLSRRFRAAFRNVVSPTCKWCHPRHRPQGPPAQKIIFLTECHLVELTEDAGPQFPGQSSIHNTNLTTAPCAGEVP
PARAMETER: % Activity (%)
Reply with just the number (in %).

These solved cases illustrate the format of a correct answer.
[
  {
    "SUBSTANCE": "Ac-C4FRVDEEFQSPFASQSRGYFLFRPRN-CONH2 ({Ac-C(PEG 20 kDa)}-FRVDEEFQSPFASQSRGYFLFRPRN-NH2) [NMU21, C4 = Cys(PEG)20 kDa]",
    "% Activity / %": 99.2
  },
  {
    "SUBSTANCE": "H-FRVDEEFQSPFASQSRPYFLFRPRN-NH2 [NMU4]",
    "% Activity / %": 100
  }
]

// query What % Activity value was documented for this substance, Ac-C4-C4-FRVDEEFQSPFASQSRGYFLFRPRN-CONH2 ({Ac-C(PEG 20 kDa)-C(PEG 20 kDa)}-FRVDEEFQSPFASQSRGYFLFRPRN-NH2) [NMU23, C4 = Cys(PEG)20 kDa] ?
// result 90.2

----------
biological target: Mouse NMUR1-CTG (Mus musculus, UniProt O55040); test: FLIPR calcium mobilization assay, mouse NMUR1-CTG; type: cell-based; design: expressed in transfected cells; host or cells: FLP-In CHO or HEK-293 FLP-In cells (pcDNA5); settings: maximum response at 1 μM compared to hNMU-25; mouse NMUR1-CTG
Sequence (O55040 whole entry): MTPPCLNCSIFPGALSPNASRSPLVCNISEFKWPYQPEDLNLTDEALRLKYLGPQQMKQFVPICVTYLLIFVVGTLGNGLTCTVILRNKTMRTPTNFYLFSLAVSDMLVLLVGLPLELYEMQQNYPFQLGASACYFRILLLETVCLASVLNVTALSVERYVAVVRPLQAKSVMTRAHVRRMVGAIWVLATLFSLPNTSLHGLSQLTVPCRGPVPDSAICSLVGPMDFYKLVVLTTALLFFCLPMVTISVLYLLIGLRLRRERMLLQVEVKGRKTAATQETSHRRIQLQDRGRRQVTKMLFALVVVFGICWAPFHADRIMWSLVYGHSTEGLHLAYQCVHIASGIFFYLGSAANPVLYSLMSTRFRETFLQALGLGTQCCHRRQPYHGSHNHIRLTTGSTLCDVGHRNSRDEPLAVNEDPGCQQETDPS
No end group written: not given here.
Parameter: % Activity. Scope: all listed entries.
Reply with just the number (in %).

These solved cases illustrate the format of a correct answer.
[
  {
    "SUBSTANCE": "Ac-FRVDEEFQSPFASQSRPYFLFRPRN-NH2 [NMU5]",
    "% Activity / %": 100
  },
  {
    "SUBSTANCE": "Ac-C4-C4-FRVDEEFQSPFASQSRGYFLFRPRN-CONH2 ({Ac-C(PEG 20 kDa)-C(PEG 20 kDa)}-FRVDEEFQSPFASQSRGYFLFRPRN-NH2) [NMU23, C4 = Cys(PEG)20 kDa]",
    "% Activity / %": 50.9
  },
  {
    "SUBSTANCE": "Ac-C4FRVDEEFQSPFASQSRGYFLFRPRN-CONH2 ({Ac-C(PEG 20 kDa)}-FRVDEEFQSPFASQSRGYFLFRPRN-NH2) [NMU21, C4 = Cys(PEG)20 kDa]",
    "% Activity / %": 90.8
  },
  {
    "SUBSTANCE": "Ac-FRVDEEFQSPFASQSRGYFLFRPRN-NH2 [NMU2]",
    "% Activity / %": 100
  }
]

// query Recall the recorded % Activity for H-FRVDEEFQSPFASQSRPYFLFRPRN-NH2 [NMU4] with Mouse NMUR1-CTG (Mus musculus, UniProt O55040) and state it.
// result 100

// query Recall the recorded % Activity for Ac-C2FQSPFASQSRGYFLFRPRN-CONH2 ({Ac-C(PEG 40 kDa)}-FQSPFASQSRGYFLFRPRN-NH2; not fully specified; printed as Ac-C2FQSPFASQSRGYFLFRPRN-CONH2) [NMU20, C2 = Cys(PEG)240 kDa] with Mouse NMUR1-CTG (Mus musculus, UniProt O55040) and state it.
// result 65.4

// query Recall the recorded % Activity for GYFLFRPRN-NH2 [NMU3] with Mouse NMUR1-CTG (Mus musculus, UniProt O55040) and state it.
// result 100

----------
target: hNMUR2 (Homo sapiens, UniProt Q9GZQ4); experiment: FLIPR calcium mobilization assay, human NMUR2; format: cell-based; set-up: expressed in transfected cells; host or cells: FLP-In CHO or HEK-293 FLP-In cells (pcDNA5); HEK-293/aeq17 lines (pcDNA3.1) were also made; conditions: FLIPR, human NMUR2
Sequence (Q9GZQ4 whole entry): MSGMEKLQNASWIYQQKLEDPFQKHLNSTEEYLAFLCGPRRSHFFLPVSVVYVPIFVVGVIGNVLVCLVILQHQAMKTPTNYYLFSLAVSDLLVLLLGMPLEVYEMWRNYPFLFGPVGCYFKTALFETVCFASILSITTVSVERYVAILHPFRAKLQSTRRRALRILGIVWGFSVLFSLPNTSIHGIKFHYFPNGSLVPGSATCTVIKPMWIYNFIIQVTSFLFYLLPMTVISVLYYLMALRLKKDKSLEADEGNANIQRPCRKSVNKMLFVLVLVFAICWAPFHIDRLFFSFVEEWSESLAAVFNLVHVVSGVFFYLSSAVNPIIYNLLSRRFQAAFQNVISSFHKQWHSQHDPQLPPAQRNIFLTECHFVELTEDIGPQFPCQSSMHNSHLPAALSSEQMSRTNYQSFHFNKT
pEC50: −log10 of the molar value. *: point of attachment. Palmitoyl = CCCCCCCCCCCCCCCC(=O)*
Outcome: Y for pEC50 of at least 8; N for anything lower.

[
  {
    "SUBSTANCE": "Ac-C4FRVDEEFQSPFASQSRGYFLFRPRN-CONH2 ({Ac-C(PEG 20 kDa)}-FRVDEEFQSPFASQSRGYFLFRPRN-NH2) [NMU21, C4 = Cys(PEG)20 kDa]",
    "GROUP LABEL": "N"
  },
  {
    "SUBSTANCE": "Ac-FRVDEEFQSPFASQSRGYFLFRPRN-NH2 [NMU2]",
    "GROUP LABEL": "Y"
  },
  {
    "SUBSTANCE": "Ac-C2GYFLFRPRN-CONH2 ({Ac-C(PEG 40 kDa)}-GYFLFRPRN-NH2) [NMU7, C2 = Cys(PEG)240 kDa]",
    "GROUP LABEL": "N"
  },
  {
    "SUBSTANCE": "H-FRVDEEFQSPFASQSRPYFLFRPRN-NH2 [NMU4]",
    "GROUP LABEL": "Y"
  },
  {
    "SUBSTANCE": "Pam-C2FRVDEEFQSPFASQSRGYFLFRPRN-CONH2 ({Palmitoyl-C(PEG 40 kDa)}-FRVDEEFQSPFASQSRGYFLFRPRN-NH2) [NMU25, Pam = palmitoyl; C2 = Cys(PEG)240 kDa]",
    "GROUP LABEL": "N"
  }
]

// query Check this substance for pEC50 at or above 8: Ac-C2FRVDEEFQSPFASQSRGYFLFRPRN-CONH2 [NMU9] ({Ac-C(PEG 40 kDa)}-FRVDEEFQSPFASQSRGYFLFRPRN-NH2) [C2 = Cys(PEG)240 kDa from Nektar (mPEG2-MAL-40 k)]
// result N

----------
molecular target: hNMUR2 (Homo sapiens, UniProt Q9GZQ4); test: FLIPR calcium mobilization assay, human NMUR2; format: cell-based; design: expressed in transfected cells; host or cells: FLP-In CHO or HEK-293 FLP-In cells (pcDNA5); HEK-293/aeq17 lines (pcDNA3.1) were also made; details: maximum response at 1 μM compared to hNMU-25; human NMUR2
No end group written: not given here. *: point of attachment. Palmitoyl = CCCCCCCCCCCCCCCC(=O)*
PARAMETER: % Activity (%)
Reply with just the number (in %).

These solved cases illustrate the format of a correct answer.
[
  {
    "SUBSTANCE": "Pam-C2FRVDEEFQSPFASQSRGYFLFRPRN-CONH2 ({Palmitoyl-C(PEG 40 kDa)}-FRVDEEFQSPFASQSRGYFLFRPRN-NH2) [NMU25, Pam = palmitoyl; C2 = Cys(PEG)240 kDa]",
    "% Activity (%)": 98.8
  },
  {
    "SUBSTANCE": "GYFLFRPRN-NH2 [NMU3]",
    "% Activity (%)": 100
  },
  {
    "SUBSTANCE": "Ac-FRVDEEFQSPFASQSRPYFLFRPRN-NH2 [NMU5]",
    "% Activity (%)": 98.1
  },
  {
    "SUBSTANCE": "Ac-C4FRVDEEFQSPFASQSRGYFLFRPRN-CONH2 ({Ac-C(PEG 20 kDa)}-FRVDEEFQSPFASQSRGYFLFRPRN-NH2) [NMU21, C4 = Cys(PEG)20 kDa]",
    "% Activity (%)": 97.9
  },
  {
    "SUBSTANCE": "H-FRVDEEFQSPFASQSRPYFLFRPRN-NH2 [NMU4]",
    "% Activity (%)": 100
  }
]

// query What % Activity value was documented for this substance, Ac-C2GYFLFRPRN-CONH2 ({Ac-C(PEG 40 kDa)}-GYFLFRPRN-NH2) [NMU7, C2 = Cys(PEG)240 kDa] ?
// result 91.8

// query What % Activity value was documented for this substance, Ac-C2FRVDEEFQSPFASQSRGYFLFRPRN-CONH2 [NMU9] ({Ac-C(PEG 40 kDa)}-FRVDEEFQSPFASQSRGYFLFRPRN-NH2) [C2 = Cys(PEG)240 kDa from Nektar (mPEG2-MAL-40 k)] ?
// result 94.3

// query What % Activity value was documented for this substance, Ac-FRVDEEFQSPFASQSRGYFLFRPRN-NH2 [NMU2] ?
// result 97.4

----------
Parameter: % Activity. Scope: all listed entries.
Biological target: hNMUR1 (Homo sapiens)
Sequence (Q9HB89 1-426): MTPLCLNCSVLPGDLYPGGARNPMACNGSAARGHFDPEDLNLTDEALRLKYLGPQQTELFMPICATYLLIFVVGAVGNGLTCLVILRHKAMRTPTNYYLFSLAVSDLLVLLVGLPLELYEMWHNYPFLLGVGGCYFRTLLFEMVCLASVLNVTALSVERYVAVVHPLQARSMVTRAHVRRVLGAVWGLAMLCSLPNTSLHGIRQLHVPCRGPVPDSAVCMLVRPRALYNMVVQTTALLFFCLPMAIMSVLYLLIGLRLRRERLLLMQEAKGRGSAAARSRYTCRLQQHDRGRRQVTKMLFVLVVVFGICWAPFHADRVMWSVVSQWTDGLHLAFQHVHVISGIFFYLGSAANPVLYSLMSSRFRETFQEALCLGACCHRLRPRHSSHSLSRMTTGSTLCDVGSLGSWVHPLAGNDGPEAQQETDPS
Test: FLIPR calcium mobilization assay, human NMUR1
Type: cell-based
Parameters: expressed in transfected cells; host or cells: FLP-In CHO or HEK-293 FLP-In cells (pcDNA5); HEK-293/aeq17 lines (pIRES-puro) were also made
Conditions: maximum response at 1 μM compared to hNMU-25 response at same concentration; human NMUR1
*: point of attachment. Palmitoyl = CCCCCCCCCCCCCCCC(=O)*
Reply with just the number (in %).

These solved cases illustrate the format of a correct answer.
[
  {
    "SUBSTANCE": "Ac-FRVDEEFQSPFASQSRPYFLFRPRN-NH2 [NMU5]",
    "% Activity (%)": 98.1
  },
  {
    "SUBSTANCE": "Ac-C4FRVDEEFQSPFASQSRGYFLFRPRN-CONH2 ({Ac-C(PEG 20 kDa)}-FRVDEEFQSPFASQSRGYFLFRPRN-NH2) [NMU21, C4 = Cys(PEG)20 kDa]",
    "% Activity (%)": 93.2
  },
  {
    "SUBSTANCE": "Ac-C2GYFLFRPRN-CONH2 ({Ac-C(PEG 40 kDa)}-GYFLFRPRN-NH2) [NMU7, C2 = Cys(PEG)240 kDa]",
    "% Activity (%)": 91.4
  },
  {
    "SUBSTANCE": "Ac-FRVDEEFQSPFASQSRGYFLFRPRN-NH2 [NMU2]",
    "% Activity (%)": 99.0
  }
]

Next substance, please.
// query What % Activity value was documented for this substance, Pam-C2FRVDEEFQSPFASQSRGYFLFRPRN-CONH2 ({Palmitoyl-C(PEG 40 kDa)}-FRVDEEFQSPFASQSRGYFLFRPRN-NH2) [NMU25, Pam = palmitoyl; C2 = Cys(PEG)240 kDa] ?
// result 83.0
